test system: D54 ERlucT glycosylation luciferase reporter, luminescence, 24 h; test: N-linked glycosylation inhibitors, luciferase reporter, dose response, D54 ERlucT cells, luminescence, cherry-picks (AID 624491);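 further: signal gain reflects blocked N-linked glycosylation of a luciferase reporter; actives raise luciferase signal so AC26 marks activators of the reporter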
Recorded AC26 for the following molecules
Parameter measured: AC26

Molecule: Nc1c(N(Cc2ccccc2)C(=O)COc2ccc([N+](=O)[O-])cc2)c(=O)[nH]c(=O)n1Cc1ccccc1
Result: 389 nM

Molecule: CC1(C(=O)NCCc2ccccc2)Cc2c(-c3ccc4c(c3)OCO4)ccnc2O1 (stereo not given)
Result: 3160 nM

Molecule: C/C(=N/NC(=O)c1cccs1)c1ccc(NC(=O)COc2ccc(Cl)cc2Cl)cc1
Result: 6270 nM

Molecule: CCN(CC)CCNc1nc2cc(OC)c(OC)cc2c2nc(-c3ccccc3)nn12
Result: 1860 nM

Molecule: CCn1c2ccccc2c2cc(NC(=O)COC(=O)c3cc(S(N)(=O)=O)c(Cl)cc3Cl)ccc21
Result: 3710 nM

Molecule: CCOc1cc(N2CCOCC2)c(OCC)cc1NC(=O)c1[nH]c(C)c(C(C)=O)c1C
Result: 1620 nM

Molecule: CCOC(=O)N/N=C/c1ccc(N(CC)CC)cc1O
Result: 2990 nM

Molecule: COc1ccc(/C=C/C(=O)c2ccc(Cl)s2)cc1O
Result: 4730 nM

Molecule: O=C1NC(=O)C(=Cc2c(Cl)cccc2Cl)C(=O)N1
Result: 2240 nM

Molecule: O=C(Nc1nc2ccccc2c(=O)s1)c1ccco1
Result: 653 nM

Molecule: CC(=O)OC12COC1CC(O)C1(C)C(=O)C(O)C3=C(C)C(O)CC(O)(C(OC(=O)c4ccccc4)C21)C3(C)C (stereo not given)
Result: 1120 nM

Molecule: Cn1c(=O)n(C)c2cc(NC(=O)CCl)ccc21
Result: 2090 nM

Molecule: COc1ccc(C2=NOC(C(=O)NCc3ccc(F)cc3)C2)cc1 (stereo not given)
Result: 516 nM

Molecule: Cc1ccc(C(=O)N2C(CC(=O)Nc3ccc(Cl)cc3)C(=O)NC3CCCCC32)cc1 (stereo not given)
Result: 12600 nM

Molecule: COc1ccc(NC(=O)C2(C)Cc3c(-c4cccc(NC(C)=O)c4)ccnc3O2)cn1 (stereo not given)
Result: 10100 nM

Molecule: Cc1cccc(CCNC(=O)CCCOc2cc(=O)n(C)c3ccccc23)c1
Result: 4450 nM

Molecule: Oc1ccc(Nc2nc(NCC3CCCO3)c3ccccc3n2)cc1 (stereo not given)
Result: 1110 nM

Molecule: CCCn1c(CN2CCN(C(=O)OCC)CC2)nc2cc(NC(=O)CC)ccc21
Result: 9150 nM

Molecule: COc1ccc(C(=O)Nc2sc(C)c(C)c2CN2CC(C)OC(C)C2)cc1 (stereo not given)
Result: 659 nM

Molecule: CCCCCCC(=O)N(O)C1CC(=O)N(c2ccc(F)cc2)C1=O (stereo not given)
Result: 1290 nM

Source of measurements: PubChem BioAssay AID624491
